Provide the recorded IC50 for the entries that follow.
target-or-test-system: caspase 1 (Homo sapiens)
Construct: purchased BIOMOL Research Laboratories (Plymouth Meeting, Pa.)
Sequence (P29466 120-297 limits assumed): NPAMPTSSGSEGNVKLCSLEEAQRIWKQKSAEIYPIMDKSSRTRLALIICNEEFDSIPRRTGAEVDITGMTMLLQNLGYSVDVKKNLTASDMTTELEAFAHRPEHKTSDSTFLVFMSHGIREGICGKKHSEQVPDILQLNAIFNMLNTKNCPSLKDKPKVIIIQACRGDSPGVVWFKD
Sequence (P29466 317-404 limits assumed): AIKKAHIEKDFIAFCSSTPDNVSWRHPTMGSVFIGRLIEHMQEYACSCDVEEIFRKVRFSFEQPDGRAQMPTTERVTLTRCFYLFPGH
assay-text: Enzyme inhibition assay, caspase 1 (fluorogenic Ac-YVAD-AMC)
Type: biochemical
recorded-conditions: Table 1; read-out: IC50 (nM) Caspase 1

Item O=C1C(=O)N(Cc2ccc(OCCF)cc2)c2ccc(S(=O)(=O)N3CC[C@H]3COc3cccnc3)cc21 was tested on caspase 1 (Homo sapiens); the reported IC50 is > 10000 nM

Item O=C1C(=O)N(Cc2ccc(OCCF)cc2)c2ccc(S(=O)(=O)N3CCC[C@H]3COc3cccnc3)cc21 was tested on caspase 1 (Homo sapiens); the reported IC50 is > 20000 nM

Item O=C1C(=O)N(Cc2ccc(Br)cc2)c2ccc(S(=O)(=O)N3CCCC3COc3cccnc3)cc21 (stereo not drawn) [Compound 28c] was tested on caspase 1 (Homo sapiens); the reported IC50 is > 15000 nM

Item O=C1C(=O)N(Cc2ccc(OCCF)cc2)c2ccc(S(=O)(=O)N3CCCC3COc3ccccc3)cc21 (stereo not drawn) was tested on caspase 1 (Homo sapiens); the reported IC50 is > 15000 nM

Item CC(=O)N[C@@H](Cc1ccc(O)cc1)C(=O)N[C@H](C(=O)N[C@@H](C)C(=O)N[C@H](C=O)CC(=O)O)C(C)C [Ac-YVAD-CHO, reference compound] was tested on caspase 1 (Homo sapiens); the reported IC50 is 8.1 nM

Item O=C1C(=O)N(Cc2ccc(Br)cc2)c2ccc(S(=O)(=O)N3CCCC3COc3ccccc3)cc21 (stereo not drawn) [Compound 25d] was tested on caspase 1 (Homo sapiens); the reported IC50 is > 15000 nM

====

target-or-test-system: caspase 8 (Homo sapiens)
Construct: purchased Sigma-Aldrich (St. Louis, Mo.)
Sequence (Q14790 217-374 limits assumed): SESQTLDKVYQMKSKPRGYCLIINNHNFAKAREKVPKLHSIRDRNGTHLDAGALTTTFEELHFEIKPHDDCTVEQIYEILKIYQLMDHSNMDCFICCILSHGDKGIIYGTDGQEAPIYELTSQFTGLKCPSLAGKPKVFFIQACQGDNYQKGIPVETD
Sequence (Q14790 385-479 limits assumed): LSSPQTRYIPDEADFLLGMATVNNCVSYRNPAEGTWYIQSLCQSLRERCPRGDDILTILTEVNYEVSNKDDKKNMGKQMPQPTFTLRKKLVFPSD
assay-text: Enzyme inhibition assay, caspase 8 (fluorogenic Ac-IETD-AMC)
Type: biochemical
recorded-conditions: Table 1; read-out: IC50 (nM) Caspase 8
Residues, ends and D or L forms follow the SMILES beside them.
Provide the recorded IC50 for the entries that follow.

The measured IC50 associated with O=C1C(=O)N(Cc2ccc(OCCF)cc2)c2ccc(S(=O)(=O)N3CCCC3COc3ccccc3)cc21 (stereo not drawn) reads > 50000 nM

The measured IC50 associated with O=C1C(=O)N(Cc2ccc(OCCF)cc2)c2ccc(S(=O)(=O)N3CC[C@H]3COc3cccnc3)cc21 reads > 50000 nM

The measured IC50 associated with CC[C@H](C)[C@H](NC(C)=O)C(=O)N[C@@H](CCC(=O)O)C(=O)N[C@H](C(=O)N[C@H](C=O)CC(=O)O)[C@@H](C)O [Ac-IETD-CHO, reference compound] (Ac-IETD-aldehyde) reads 4.7 nM

The measured IC50 associated with O=C1C(=O)N(Cc2ccc(Br)cc2)c2ccc(S(=O)(=O)N3CCCC3COc3ccccc3)cc21 (stereo not drawn) [Compound 25d] reads > 50000 nM

The measured IC50 associated with O=C1C(=O)N(Cc2ccc(OCCF)cc2)c2ccc(S(=O)(=O)N3CCC[C@H]3COc3cccnc3)cc21 reads > 50000 nM

The measured IC50 associated with O=C1C(=O)N(Cc2ccc(Br)cc2)c2ccc(S(=O)(=O)N3CCCC3COc3cccnc3)cc21 (stereo not drawn) [Compound 28c] reads > 50000 nM

====

target-or-test-system: caspase 6 (Homo sapiens, UniProt P55212)
Construct: purchased Sigma-Aldrich (St. Louis, Mo.)
Sequence (P55212 24-179 limits assumed): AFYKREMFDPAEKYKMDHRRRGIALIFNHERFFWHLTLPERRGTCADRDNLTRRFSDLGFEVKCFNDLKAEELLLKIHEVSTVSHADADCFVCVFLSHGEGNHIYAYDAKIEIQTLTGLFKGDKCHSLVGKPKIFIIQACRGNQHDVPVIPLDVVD
Sequence (P55212 194-293 limits assumed): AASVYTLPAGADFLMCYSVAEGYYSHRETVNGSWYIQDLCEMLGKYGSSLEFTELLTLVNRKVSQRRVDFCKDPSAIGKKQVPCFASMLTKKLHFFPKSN
assay-text: Enzyme inhibition assay, caspase 6 (fluorogenic Ac-VEID-AMC)
Assay type: biochemical
recorded-conditions: Table 7; read-out: IC50 (nM) Casp-6
parameter: IC50

The measured IC50 associated with CN1C(=O)C(=C(C#N)C#N)c2cc(S(=O)(=O)N3CCCC3COc3ccccc3)ccc21 (stereo not shown) [Compound 27a] reads 698 nM

The measured IC50 associated with N#CC(C#N)=C1C(=O)Nc2ccc(S(=O)(=O)N3CCCC3COc3ccccc3)cc21 (stereo not shown) reads 407 nM

The measured IC50 associated with N#CC(C#N)=C1C(=O)N(Cc2ccc(Br)cc2)c2ccc(S(=O)(=O)N3CCCC3COc3ccccc3)cc21 (stereo not shown) [Compound 27d] reads 840 nM

The measured IC50 associated with N#CC(C#N)=C1C(=O)N(Cc2ccc(O)cc2)c2ccc(S(=O)(=O)N3CCC[C@H]3COc3ccccc3)cc21 [Compound 27c] reads 744 nM

====

Provide the recorded log10 of IC50 for the entries that follow.
target-or-test-system: caspase-3 (Homo sapiens, UniProt P42574)
Construct: purchased Sigma-Aldrich (St. Louis, Mo.)
Sequence (P42574 29-175 limits assumed): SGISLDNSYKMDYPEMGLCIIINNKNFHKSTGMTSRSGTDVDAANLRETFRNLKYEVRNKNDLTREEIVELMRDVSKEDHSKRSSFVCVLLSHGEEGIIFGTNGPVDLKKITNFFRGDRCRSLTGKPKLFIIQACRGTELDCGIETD
Sequence (P42574 176-277 limits assumed): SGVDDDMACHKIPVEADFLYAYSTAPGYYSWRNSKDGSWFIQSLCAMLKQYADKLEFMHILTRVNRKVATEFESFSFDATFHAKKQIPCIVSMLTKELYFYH
assay-text: Enzyme inhibition assay, caspase 3 (fluorogenic Ac-DEVD-AMC)
Format: biochemical
recorded-conditions: Table 5; read-out: IC50 (nM) caspase-3
Please be aware that the numbers have been log10-transformed from IC50 in nM.

The measured log10 of IC50 associated with CN1C(=O)C(=O)c2cc(S(=O)(=O)N3CC[C@H]3COc3ccccc3)ccc21 [Compound 18a] reads 1.96

The measured log10 of IC50 associated with O=C1C(=O)N(Cc2cccc(F)n2)c2ccc(S(=O)(=O)N3CC[C@H]3COc3ccccc3)cc21 [Compound 18i] reads 0.76

The measured log10 of IC50 associated with O=C1C(=O)N(Cc2ccnc(F)c2)c2ccc(S(=O)(=O)N3CC[C@H]3COc3ccccc3)cc21 [Compound 18h] reads 1.47

The measured log10 of IC50 associated with O=C1C(=O)N(Cc2ccc(F)cc2)c2ccc(S(=O)(=O)N3CC[C@H]3COc3ccccc3)cc21 [Compound 18e] reads 0.94

The measured log10 of IC50 associated with O=C1C(=O)N(Cc2ccccc2F)c2ccc(S(=O)(=O)N3CC[C@H]3COc3ccccc3)cc21 [Compound 18f] reads 0.97

The measured log10 of IC50 associated with CSc1ccc(CN2C(=O)C(=O)c3cc(S(=O)(=O)N4CC[C@H]4COc4ccccc4)ccc32)cc1 [Compound 18d] reads 1.05

The measured log10 of IC50 associated with O=C1C(=O)N(Cc2ccccc2)c2ccc(S(=O)(=O)N3CC[C@H]3COc3ccccc3)cc21 [Compound 18b] reads 0.99

====

target-or-test-system: caspase 7 (Homo sapiens, UniProt P55210)
Construct: purchased Sigma-Aldrich (St. Louis, Mo.)
Sequence (P55210 24-198 limits assumed): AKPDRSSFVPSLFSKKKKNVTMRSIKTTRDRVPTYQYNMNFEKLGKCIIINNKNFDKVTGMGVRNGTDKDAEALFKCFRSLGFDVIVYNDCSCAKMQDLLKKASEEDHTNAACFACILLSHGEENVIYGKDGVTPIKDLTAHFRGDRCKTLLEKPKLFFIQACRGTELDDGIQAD
Sequence (P55210 207-303 limits assumed): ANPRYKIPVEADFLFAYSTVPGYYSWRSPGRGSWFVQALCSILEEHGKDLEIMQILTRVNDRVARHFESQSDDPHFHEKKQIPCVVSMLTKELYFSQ
assay-text: Enzyme inhibition assay, caspase 7 (fluorogenic Ac-DEVD-AMC)
Type: biochemical
recorded-conditions: read-out: IC50 for caspase-7
parameter: pIC50
// pIC50 is dimensionless: -log10 of concentration (M)

The measured pIC50 associated with N#CC(C#N)=C1C(=O)N(Cc2ccc(O)cc2)c2ccc(S(=O)(=O)N3CCC[C@H]3COc3ccccc3)cc21 [Compound 27c] reads 6.90

The measured pIC50 associated with COc1ccc(CN2C(=O)C(=C(C#N)C#N)c3cc(S(=O)(=O)N4CCCC4COc4cccnc4)ccc32)cc1 (stereo not shown) [Compound 30d] reads 7.82

The measured pIC50 associated with N#CC(C#N)=C1C(=O)Nc2ccc(S(=O)(=O)N3CCCC3COc3ccccc3)cc21 (stereo not shown) reads 5.80

The measured pIC50 associated with N#CC(C#N)=C1C(=O)N(Cc2ccc(Br)cc2)c2ccc(S(=O)(=O)N3CCCC3COc3ccccc3)cc21 (stereo not shown) [Compound 27d] reads 7.04

====

target-or-test-system: caspase-3 (Homo sapiens, UniProt P42574)
Construct: purchased Sigma-Aldrich (St. Louis, Mo.)
assay-text: Enzyme inhibition assay, caspase 3 (fluorogenic Ac-DEVD-AMC)
Type: biochemical
recorded-conditions: Table 6; read-out: IC50 (nM) caspase-3
parameter: IC50

The measured IC50 associated with O=C1C(=O)N(Cc2ccccc2)c2ccc(S(=O)(=O)N3CCCC3COc3cccnc3)cc21 (centres unmarked) [Compound 21b] reads 5.2 nM

The measured IC50 associated with O=C1Nc2ccc(S(=O)(=O)N3CCCC3COc3ccncc3)cc2C1=O (centres unmarked) reads 20.4 nM

The measured IC50 associated with O=C1C(=O)N(Cc2ccc(F)cc2)c2ccc(S(=O)(=O)N3CCCC3COc3cccnc3)cc21 (centres unmarked) [Compound 21e] reads 8.4 nM

The measured IC50 associated with CSc1ccc(CN2C(=O)C(=O)c3cc(S(=O)(=O)N4CCCC4COc4cccnc4)ccc32)cc1 (centres unmarked) [Compound 21d] reads 4.4 nM

The measured IC50 associated with O=C1Nc2ccc(S(=O)(=O)N3CCCC3COc3cccnc3)cc2C1=O (centres unmarked) reads 58.3 nM
